Examples of compounds with documented pIC50 follow.
target: CDK4/CyclinD1 (Homo sapiens); construct: purchased Thermofisher PR8064A; assay: Assay for inhibition of CDK4/CyclinD1 (Caliper microfluidic kinase assay); type: biochemical; conditions: CDK4/CyclinD1
Sequence (P11802 whole entry): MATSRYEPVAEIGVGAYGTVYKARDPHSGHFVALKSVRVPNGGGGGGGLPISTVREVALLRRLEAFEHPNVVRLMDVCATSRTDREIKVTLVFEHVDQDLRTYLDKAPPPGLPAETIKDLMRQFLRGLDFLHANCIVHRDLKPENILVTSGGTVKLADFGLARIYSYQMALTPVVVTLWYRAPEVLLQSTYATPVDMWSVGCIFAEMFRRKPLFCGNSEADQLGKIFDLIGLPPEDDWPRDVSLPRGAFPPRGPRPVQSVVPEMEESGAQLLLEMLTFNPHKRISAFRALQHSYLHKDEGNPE
Sequence (P24385 whole entry partner): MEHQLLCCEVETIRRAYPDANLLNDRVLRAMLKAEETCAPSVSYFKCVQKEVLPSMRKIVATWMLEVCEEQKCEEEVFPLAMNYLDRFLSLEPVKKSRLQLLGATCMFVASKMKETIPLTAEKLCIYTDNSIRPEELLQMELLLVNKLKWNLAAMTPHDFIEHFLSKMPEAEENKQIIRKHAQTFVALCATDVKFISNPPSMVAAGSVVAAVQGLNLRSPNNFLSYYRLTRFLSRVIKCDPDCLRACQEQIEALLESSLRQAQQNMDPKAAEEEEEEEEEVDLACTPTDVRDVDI
pIC50: −log10 of the molar value.

- compound: "COc1nc(-c2nc(Nc3ccc(N4CCC5(CCNC5=O)CC4)cn3)ncc2F)cc2c1nc(C)n2C(C)C"
  pIC50: "7.00 to 8.00"
- compound: "COc1nc(-c2nc(Nc3ccc(N4CCOCC4=O)cn3)ncc2F)cc2c1nc(C)n2C1CCCC1O (stereo not drawn)"
  pIC50: "7.00 to 8.00"
- compound: "COc1nc(-c2nc(Nc3ccc(N4CCOCC4=O)cc3F)ncc2F)cc2c1nc(C)n2C(C)C"
  pIC50: "> 8.00"
- compound: "COc1nc(-c2ccnc(Nc3ccc(N4CCOC(C)(C)C4)cn3)n2)cc2c1ncn2C(C)C"
  pIC50: "7.00 to 8.00"
- compound: "COc1nc(-c2nc(Nc3ccc(C(=O)N4CCC(NC5CC5)CC4)c(C)n3)ncc2F)cc2c1nc(C)n2C(C)C"
  pIC50: "7.00 to 8.00"
- compound: "COc1nc(-c2nc(Nc3ccc(CN4CCN5CCCC5C4)cn3)ncc2F)cc2c1nc(C)n2C(C)C (stereo not drawn)"
  pIC50: "7.00 to 8.00"
- compound: "CCN1CCN(Cc2ccc(Nc3ncc(F)c(-c4cc5c(nc(C)n5C(C)C)c(OC)n4)n3)nc2)CC1"
  pIC50: "7.00 to 8.00"
- compound: "COc1nc(-c2ccnc(Nc3ccc(CN4CCC(C#N)C4)cn3)n2)cc2c1ncn2C(C)C (stereo not drawn)"
  pIC50: "7.00 to 8.00"
- compound: "COc1nc(-c2nc(Nc3ccc(N4CCOCCC4=O)cn3)ncc2F)cc2c1nc(C)n2C(C)C"
  pIC50: "> 8.00"
- compound: "COc1nc(-c2ccnc(Nc3ccc(N4CCC(N(C)C)CC4=O)cn3)n2)cc2c1ncn2C(C)C (stereo not drawn)"
  pIC50: "> 8.00"
- compound: "COc1nc(-c2ccnc(Nc3ccc(N4CCOCC4)cn3)n2)cc2c1ncn2C(C)C"
  pIC50: "> 8.00"
- compound: "COc1nc(-c2nc(Nc3ccc(N4CCOCC4C)cn3)ncc2F)cc2c1nc(C)n2C(C)C (stereo not drawn)"
  pIC50: "7.00 to 8.00"
- compound: "COc1nc(-c2ccnc(Nc3ccc(CN4CCOCC4)cn3)n2)cc2c1ncn2C(C)C"
  pIC50: "7.00 to 8.00"
- compound: "COc1nc(-c2nc(Nc3ccc(N4CC5CCC(C4)O5)cn3)ncc2F)cc2c1nc(C)n2C(C)C"
  pIC50: "7.00 to 8.00"
- compound: "COc1nc(-c2nc(Nc3ccc(N4CCOCC4=O)cn3)ncc2Cl)cc2c1nc(C)n2C(C)C"
  pIC50: "> 8.00"
- compound: "CCN1CCN(Cc2ccc(Nc3ncc(F)c(-c4cc5c(ncn5C(C)C)c(OC)n4)n3)nc2)CC1"
  pIC50: "> 8.00"
- compound: "COc1nc(-c2ccnc(Nc3ccc(N4CCC(N5CC(F)(F)C5)CC4=O)cn3)n2)cc2c1ncn2C(C)C (stereo not drawn)"
  pIC50: "> 8.00"
- compound: "COc1nc(-c2ccnc(Nc3ccc(CN4CCC(C#N)CC4)cn3)n2)cc2c1ncn2C(C)C"
  pIC50: "> 8.00"
- compound: "COc1nc(-c2nc(Nc3ccc(N4CCC(N(C)C)CC4)cn3)ncc2F)cc2c1nc(C)n2C(C)C"
  pIC50: "> 8.00"
- compound: "COc1nc(-c2nc(Nc3ccc(N4CCC5(CC4)CC(=O)NC5=O)cn3)ncc2F)cc2c1nc(C)n2C(C)C"
  pIC50: "7.00 to 8.00"
- compound: "COc1nc(-c2ccnc(Nc3ccc(N4CCC(N5CCOCC5)CC4=O)cn3)n2)cc2c1ncn2C(C)C (stereo not drawn)"
  pIC50: "> 8.00"
- compound: "CCN1CCN(c2ccc(Nc3ncc(F)c(-c4cc5c(nc(C)n5C(C)C)c(OC)n4)n3)nc2)C1=O"
  pIC50: "7.00 to 8.00"
- compound: "COc1nc(-c2ccnc(Nc3ccc(N4CCOCC4=O)cn3)n2)cc2c1nc(C)n2C(C)C"
  pIC50: "> 8.00"
- compound: "COc1nc(-c2nc(Nc3ccc(N4CCCC4=O)cn3)ncc2F)cc2c1nc(C)n2C(C)C"
  pIC50: "7.00 to 8.00"
- compound: "COc1nc(-c2ccnc(Nc3ccc(N4CCC(C)(N)CC4=O)cn3)n2)cc2c1ncn2C(C)C (stereo not drawn)"
  pIC50: "7.00 to 8.00"
- compound: "COc1nc(-c2ccnc(Nc3ccc(N4CCC(N5CCC5)CC4=O)cn3)n2)cc2c1ncn2C(C)C (stereo not drawn)"
  pIC50: "> 8.00"
- compound: "COc1nc(-c2nc(NC3CCN(S(C)(=O)=O)CC3)ncc2F)cc2c1nc(C)n2C(C)C"
  pIC50: "7.00 to 8.00"
- compound: "COc1nc(-c2nc(Nc3ccc(N4CCOCC4=O)cn3)ncc2F)cc2c1ncn2C(C)C"
  pIC50: "> 8.00"
- compound: "COc1nc(-c2nc(Nc3ccc(N4CCC(N(C)C)CC4)cn3)ncc2F)cc2c1ncn2C(C)C"
  pIC50: "> 8.00"
- compound: "COc1nc(-c2ccnc(Nc3ccc(N4CCCC(N(C)C)C4=O)cc3)n2)cc2c1ncn2C(C)C (stereo not drawn)"
  pIC50: "> 8.00"

###

Examples of molecules with documented IC50 follow.
target: CDK4/CyclinD1 (Homo sapiens); construct: purchased Thermofisher PR8064A; assay: Assay for inhibition of CDK4/CyclinD1 (Caliper microfluidic kinase assay); assay type: biochemical; details: CDK4/CyclinD1, 200 μM ATP

- molecule: "CC(C)c1cnn2ccc(-c3ccnc(Nc4ccc(N5CCN(C6COC6)CC5=O)cn4)n3)cc12"
  IC50: "< 10 nM"
- molecule: "COc1nc(-c2nc(Nc3ccc(N4CCNCC4)cn3)ncc2F)cc2c1nc(C)n2C(C)C [Synthetic Example 106]"
  IC50: "< 10 nM"
- molecule: "COc1nc(-c2nc(Nc3ccc(N4CCN(C5COC5)CC4=O)cn3)ncc2F)cc2c1ncn2C(C)C"
  IC50: "< 10 nM"
- molecule: "CC(C)c1cnn2ccc(-c3nc(Nc4ccc(N5CCOCC5=O)c(C(F)(F)F)c4)ncc3F)cc12"
  IC50: "10 to 100 nM"
- molecule: "CC(C)n1cnc2c1CN(c1ccnc(Nc3ccc(N4CCN(S(C)(=O)=O)CC4=O)cn3)n1)CC2"
  IC50: "10 to 100 nM"
- molecule: "CNC1CCCN(c2ccc(Nc3nccc(-c4ccn5ncc(C(C)C)c5c4)n3)cc2)C1=O (stereo not shown)"
  IC50: "< 10 nM"
- molecule: "O=C1CCNCCN1c1ccc(Nc2ncc(F)c(-c3ccn4ncc(C5CC5)c4c3)n2)nc1"
  IC50: "< 10 nM"

###

Examples of compounds with documented pIC50 follow.
biological target: CDK6/CyclinD3 (Homo sapiens); construct: purchased Carna 04-107; assay: Assay for inhibition of CDK6/CyclinD3 (Caliper microfluidic kinase assay); format: biochemical; conditions: CDK6/CyclinD3, 300 μM ATP
Sequence (Q00534 whole entry): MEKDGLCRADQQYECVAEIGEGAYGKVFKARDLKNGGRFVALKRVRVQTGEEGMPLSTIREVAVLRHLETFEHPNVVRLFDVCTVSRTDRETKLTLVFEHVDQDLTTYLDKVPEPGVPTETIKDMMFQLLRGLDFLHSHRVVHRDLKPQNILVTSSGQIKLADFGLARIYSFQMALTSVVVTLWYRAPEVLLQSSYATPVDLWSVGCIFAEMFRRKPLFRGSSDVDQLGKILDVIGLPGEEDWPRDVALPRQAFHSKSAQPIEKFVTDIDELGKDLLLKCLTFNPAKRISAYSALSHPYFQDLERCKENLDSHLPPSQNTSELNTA
Sequence (P30281 whole entry partner): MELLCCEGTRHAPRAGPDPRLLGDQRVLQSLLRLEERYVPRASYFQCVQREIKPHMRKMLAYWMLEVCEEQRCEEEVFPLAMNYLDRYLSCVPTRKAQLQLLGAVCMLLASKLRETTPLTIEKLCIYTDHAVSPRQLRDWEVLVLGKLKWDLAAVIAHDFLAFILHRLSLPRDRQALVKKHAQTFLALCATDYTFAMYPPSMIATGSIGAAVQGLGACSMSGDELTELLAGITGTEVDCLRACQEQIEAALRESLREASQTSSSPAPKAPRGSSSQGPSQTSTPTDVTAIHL
pIC50: −log10 of the molar value.
readout_kind: pIC50

- compound: "CC(C)c1cnn2ccc(-c3ccnc(Nc4ccc(N5CCCNC5=O)cn4)n3)cc12 [Synthetic Example 1]"
  test_value: "7.00 to 8.00"
- compound: "CC(C)c1cnn2ccc(-c3ccnc(Nc4ccc(N5CCN(S(C)(=O)=O)CCC5=O)cn4)n3)cc12 [compound 236]"
  test_value: "> 8.00"
- compound: "CC(C)n1cnc2c(F)nc(-c3ccnc(Nc4ccc(N5CCNCC5=O)cn4)n3)cc21 [compound 273]"
  test_value: "7.00 to 8.00"
- compound: "CC(C)n1cnc2c(F)nc(-c3ccnc(Nc4ccc(N5CCNCC5)cn4)n3)cc21 [compound 286]"
  test_value: "7.00 to 8.00"
- compound: "CC(C)c1cnn2ccc(-c3ccnc(Nc4ccc(N5CCC=CC5=O)cn4)n3)cc12 [compound 184]"
  test_value: "7.00 to 8.00"
- compound: "COc1nc(-c2nc(Nc3ccc(N4CCC(N(C)C)CC4=O)cn3)ncc2F)cc2c1nc(C)n2C(C)C (stereo not drawn) [Synthetic Example 62]"
  test_value: "7.00 to 8.00"
- compound: "COc1nc(-c2ccnc(Nc3ccc(N4CCN(CCF)CC4=O)cn3)n2)cc2c1ncn2C(C)C [compound 122]"
  test_value: "7.00 to 8.00"
- compound: "COc1nc(-c2nc(Nc3ccc(N4CCN(C5CNC5)CC4=O)cn3)ncc2F)cc2c1nc(C)n2C(C)C [Synthetic Example 138]"
  test_value: "7.00 to 8.00"
- compound: "CC(C)c1cnn2ccc(-c3nc(Nc4ccc(N5CCN(C6CNC6)CCC5=O)cn4)ncc3F)cc12 [compound 42]"
  test_value: "7.00 to 8.00"
- compound: "COc1nc(-c2nc(Nc3ccc(N4CCN(C5COC5)CC4=O)cn3)ncc2F)cc2c1nc(C)n2C(C)C [compound 131]"
  test_value: "7.00 to 8.00"
- compound: "CCN1CCN(c2ccc(Nc3ncc(F)c(-c4cc5c(ncn5C(C)C)c(OC)n4)n3)nc2)C(=O)C1 [compound 132]"
  test_value: "7.00 to 8.00"
- compound: "CC(C)(C)c1cnn2ccc(-c3ccnc(Nc4ccc(N5CCCC(N)C5=O)cc4)n3)cc12 (stereo not drawn) [compound 218]"
  test_value: "> 8.00"
- compound: "CC(C)c1cnn2ccc(-c3ccnc(Nc4ccc(N5CCC(C)(N)CC5=O)cc4)n3)cc12 (stereo not drawn) [compound 202]"
  test_value: "> 8.00"
- compound: "CC(C)c1cnn2ccc(-c3ccnc(Nc4ccc(N5CCC(N6CC(F)C6)CC5=O)cn4)n3)cc12 (stereo not drawn) [compound 162]"
  test_value: "7.00 to 8.00"
- compound: "CNC1CCCN(c2ccc(Nc3nccc(-c4ccn5ncc(C(C)C)c5c4)n3)cc2)C1=O (stereo not drawn) [compound 215]"
  test_value: "> 8.00"

Where do these numbers come from? They come from patent US20220296595A1.
